Tested on: E. coli strain W3110
testProtocol: Synergy assays: Biolog chemical sensitivity panels with Group IB metal, coefficient of drug interaction (CDI) from relative growth
Assay type: cell-based
conditionLabel: Gold (μM), first of 3 gold concentrations; biocide concentration 4 of 4
Measured CDI (coefficient of drug interaction), gold + biocide of individual entries
Returns: the value as a bare number; no unit string appended.

// solved cases for CDI (coefficient of drug interaction), gold + biocide follow
compound: NC(CO)C(=O)NO (racemic) [D,L-serine hydroxamate]
quantitativeResult: 0.71
//
compound: CC1(C)S[C@@H]2[C@H](NC(=O)[C@H](NC(=O)N3CCNC3=O)c3ccccc3)C(=O)N2[C@H]1C(=O)O
quantitativeResult: 0.64

**Query** Would you kindly share the measured CDI (coefficient of drug interaction), gold + biocide for NCC(=O)NO [glycine hydroxamate] ?
**Result** 1.01

**Query** Another compound to look at: N.N.N.N.N.N.N.N.N.N.N.N.N.N.[Cl-].[Cl-].[Cl-].[Cl-].[Cl-].[Cl-].[O-2].[O-2].[Ru+3].[Ru+3].[Ru+4]
**Result** 1.06
